Source of measurements: patent US20190375839A1

TARGET_OR_TEST_SYSTEM: T1, human TIM-3 full length, overexpressed on CHO-S cells (human, UniProt Q8TDQ0 22-301)
T1 construct: cells fixed with 4% PFA on plates; also called HAVCR2; Tim-3-overexpressing CHO-S cells
TEST_NAME: cell-based ELISA on CHO-S cells overexpressing human TIM-3
PROPERTY_MEASURED: pEC50
Lab note: report pEC50 as minus log10 of the concentration in molar units, number only.

QUERY: Param item = h1701-009NKG (antibody, human IgG4 S228P, kappa, V domains shown, HCDR2 point-mutation variant of h1701-009 (NNG to NKG); IgG4 (S228P)/kappa) VH: QVQLVQSGAEVKKPGASVKVSCKASGYTFTDYYMNWVRQAPGQGLEWMGDIIPNKGGSKYNQKFKDRVTMTTDTSTSTAYMELRSLRSDDTAVYYCATWGYGSSYRWFDYWGQGTLVTVSS VL: DIQMTQSPSSLSASVGDRVTITCLASQPIGIWLAWYQQKPGKAPKLLIYAATSLADGVPSRFSGSGSGTDFTFTISSLQPEDIATYYCQQLYSSPWTFGGGTKVEIKR ; retrieve measured pEC50.
RESULT: 9.36
